Exercise: for every item that follows, state its recorded HDAC6 selectivity (fold).
Target: human recombinant HDAC6 (Homo sapiens)
Construct: purchased Calbiochem Inc. 382180
Experiment: HDAC6 enzyme activity inhibition (HDAC Fluorimetric Drug Discovery Kit)
Type: biochemical
Conditions: HDAC6 over HDAC1
Answers are plain numbers, in fold.

Illustrative cases are given below, each with its answer.
* FC(F)c1nnc(-c2ccc(Cn3cc(-c4ccc(CN5CCC5)cc4)nn3)nc2)o1 | 5882
* CN1CCN(c2ccc(-c3cn(Cc4ccc(-c5nnc(C(F)F)o5)cc4F)nn3)cn2)CC1 | 628
* CN1CCN(c2cccc(-c3cn(Cc4ccc(-c5nnc(C(F)F)o5)cc4F)nn3)c2F)CC1 | 2857
* CCN1CCN(c2cc(-c3cn(Cc4ccc(-c5nnc(C(F)F)o5)cn4)nn3)ccn2)CC1 | 3546

Consider the following items and state reported HDAC6 selectivity (fold) for each.
1. Fc1cc(-c2nnc(C(F)F)o2)ccc1Cn1cc(-c2ccc(CN3CC[C@@H](F)C3)nc2)nn1
2. Fc1cc(-c2nnc(C(F)F)o2)ccc1Cn1cc(-c2ccc(N3CCNCC3)cc2F)nn1
3. Fc1cc(-c2nnc(C(F)F)o2)cnc1Cn1cc(-c2ccc(CN3CCCC3)c(Cl)c2)nn1
4. Fc1cc(-c2nnc(C(F)F)o2)ccc1Cn1cc(-c2ccccn2)nn1
5. CN1CCN(c2cccc(-c3cn(Cc4ccc(-c5nnc(C(F)F)o5)cn4)nn3)c2F)CC1
6. Fc1cc(-c2nnc(C(F)F)o2)ccc1Cn1cc(-c2nccs2)nn1
7. CC1CCN(Cc2ccc(-c3cn(Cc4ccc(-c5nnc(C(F)F)o5)cc4F)nn3)cn2)CC1

1: 897; 2: 738; 3: 529; 4: 1144; 5: 3649; 6: 646; 7: 784

* * *

Biological target: human recombinant HDAC6 (Homo sapiens, UniProt Q9UBN7)
Construct: purchased Calbiochem Inc. 382180
Sequence (Q9UBN7 1-1215): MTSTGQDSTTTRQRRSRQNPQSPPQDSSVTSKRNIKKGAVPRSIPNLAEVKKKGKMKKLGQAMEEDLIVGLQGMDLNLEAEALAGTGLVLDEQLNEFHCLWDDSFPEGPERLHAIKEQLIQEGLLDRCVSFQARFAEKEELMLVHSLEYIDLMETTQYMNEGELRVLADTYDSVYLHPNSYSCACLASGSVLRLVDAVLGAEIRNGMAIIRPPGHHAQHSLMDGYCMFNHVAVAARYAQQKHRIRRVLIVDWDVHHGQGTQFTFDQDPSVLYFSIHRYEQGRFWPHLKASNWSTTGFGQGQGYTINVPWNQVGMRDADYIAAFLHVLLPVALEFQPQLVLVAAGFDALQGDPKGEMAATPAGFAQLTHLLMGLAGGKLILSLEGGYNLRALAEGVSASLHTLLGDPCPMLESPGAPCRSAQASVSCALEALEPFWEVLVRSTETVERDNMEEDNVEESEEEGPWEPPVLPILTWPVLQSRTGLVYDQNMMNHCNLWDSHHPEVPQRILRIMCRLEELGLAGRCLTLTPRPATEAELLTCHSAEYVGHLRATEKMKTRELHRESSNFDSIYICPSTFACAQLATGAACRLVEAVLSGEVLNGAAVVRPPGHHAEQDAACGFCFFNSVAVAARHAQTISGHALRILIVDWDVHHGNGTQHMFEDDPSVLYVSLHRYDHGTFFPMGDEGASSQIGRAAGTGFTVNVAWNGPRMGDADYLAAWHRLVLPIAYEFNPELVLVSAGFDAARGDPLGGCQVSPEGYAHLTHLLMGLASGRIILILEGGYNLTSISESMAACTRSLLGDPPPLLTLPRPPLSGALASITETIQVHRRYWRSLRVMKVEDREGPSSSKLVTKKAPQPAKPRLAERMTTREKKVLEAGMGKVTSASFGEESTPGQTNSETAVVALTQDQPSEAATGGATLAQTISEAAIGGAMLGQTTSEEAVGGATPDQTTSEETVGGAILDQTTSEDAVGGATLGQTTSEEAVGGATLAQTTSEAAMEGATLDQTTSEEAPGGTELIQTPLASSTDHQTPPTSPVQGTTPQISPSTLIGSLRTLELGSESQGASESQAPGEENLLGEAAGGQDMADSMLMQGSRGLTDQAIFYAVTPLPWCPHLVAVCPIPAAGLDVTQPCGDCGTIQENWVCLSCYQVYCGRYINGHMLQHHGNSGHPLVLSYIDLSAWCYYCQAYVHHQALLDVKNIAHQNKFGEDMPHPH
Assay: HDAC6 enzyme activity inhibition (HDAC Fluorimetric Drug Discovery Kit)
Format: biochemical
Settings: HDAC6 over HDAC1
Classes by HDAC6 selectivity (fold): class 0: < 900 fold; class 1: ≥ 900 fold and < 2000 fold; class 2: ≥ 2000 fold

Observe how each entry below is paired with its result.
• CCN1CCN(Cc2ccc(-c3cn(Cc4ccc(-c5nnc(C(F)F)o5)cc4)nn3)cc2)CC1 = class 1
• CN1CC(NCc2ccc(-c3cn(Cc4ccc(-c5nnc(C(F)F)o5)cn4)nn3)cc2)C1 = class 1
• FC(F)c1nnc(-c2ccc(Cn3cc(-c4cccc5c4CN(C4COC4)C5)nn3)nc2)o1 = class 0

// bin(item) where item = `CN1CCC(c2ccc(-c3cn(Cc4ncc(-c5nnc(C(F)F)o5)cc4F)nn3)cc2)CC1`
class 0

Please classify: `Fc1cc(-c2nnc(C(F)F)o2)ccc1Cn1cc(-c2cccc3c2CN(C2CCC2)C3)nn1`
class 0

* * *

Molecular target: human recombinant HDAC6 (Homo sapiens, UniProt Q9UBN7)
Construct: purchased Calbiochem Inc. 382180
Test: HDAC6 enzyme activity inhibition (HDAC Fluorimetric Drug Discovery Kit)
Assay type: biochemical
Settings: human recombinant HDAC6; IC50 calculated with GraphPad Prism
Protocol: An experiment was conducted to identify the selectivity of the compound represented by formula I of the present invention to HDAC6 through an experiment on HDAC1 and HDAC6 enzyme activity inhibition. […]
Hi there, I'd appreciate the recorded pIC50 for every entry that follows.
One number for each entry, as −log10 of the molar value.

A selection of reference data follows.
* CN(C)c1cccc(-c2cn(Cc3ccc(-c4nnc(C(F)F)o4)cc3F)nn2)c1 | 6.92
* CCC(=O)N1CCN(c2cccc(-c3cn(Cc4ccc(-c5nnc(C(F)F)o5)cc4)nn3)c2)CC1 | 7.16

For every item below, please supply its pIC50.
1. CC(C)N1CCN(c2cc(-c3cn(Cc4ccc(-c5nnc(C(F)F)o5)cc4F)nn3)ccc2F)CC1
2. CN1C[C@@H]2C[C@H]1CN2c1cc(-c2cn(Cc3ccc(-c4nnc(C(F)F)o4)cc3F)nn2)ccc1F
3. CN(C)CCC(=O)Nc1cccc(-c2cn(Cc3ccc(-c4nnc(C(F)F)o4)cc3F)nn2)c1

1: 6.94; 2: 6.85; 3: 7.20

* * *

Target: human recombinant HDAC6 (Homo sapiens)
Construct: purchased Calbiochem Inc. 382180
Sequence (Q9UBN7 1-1215): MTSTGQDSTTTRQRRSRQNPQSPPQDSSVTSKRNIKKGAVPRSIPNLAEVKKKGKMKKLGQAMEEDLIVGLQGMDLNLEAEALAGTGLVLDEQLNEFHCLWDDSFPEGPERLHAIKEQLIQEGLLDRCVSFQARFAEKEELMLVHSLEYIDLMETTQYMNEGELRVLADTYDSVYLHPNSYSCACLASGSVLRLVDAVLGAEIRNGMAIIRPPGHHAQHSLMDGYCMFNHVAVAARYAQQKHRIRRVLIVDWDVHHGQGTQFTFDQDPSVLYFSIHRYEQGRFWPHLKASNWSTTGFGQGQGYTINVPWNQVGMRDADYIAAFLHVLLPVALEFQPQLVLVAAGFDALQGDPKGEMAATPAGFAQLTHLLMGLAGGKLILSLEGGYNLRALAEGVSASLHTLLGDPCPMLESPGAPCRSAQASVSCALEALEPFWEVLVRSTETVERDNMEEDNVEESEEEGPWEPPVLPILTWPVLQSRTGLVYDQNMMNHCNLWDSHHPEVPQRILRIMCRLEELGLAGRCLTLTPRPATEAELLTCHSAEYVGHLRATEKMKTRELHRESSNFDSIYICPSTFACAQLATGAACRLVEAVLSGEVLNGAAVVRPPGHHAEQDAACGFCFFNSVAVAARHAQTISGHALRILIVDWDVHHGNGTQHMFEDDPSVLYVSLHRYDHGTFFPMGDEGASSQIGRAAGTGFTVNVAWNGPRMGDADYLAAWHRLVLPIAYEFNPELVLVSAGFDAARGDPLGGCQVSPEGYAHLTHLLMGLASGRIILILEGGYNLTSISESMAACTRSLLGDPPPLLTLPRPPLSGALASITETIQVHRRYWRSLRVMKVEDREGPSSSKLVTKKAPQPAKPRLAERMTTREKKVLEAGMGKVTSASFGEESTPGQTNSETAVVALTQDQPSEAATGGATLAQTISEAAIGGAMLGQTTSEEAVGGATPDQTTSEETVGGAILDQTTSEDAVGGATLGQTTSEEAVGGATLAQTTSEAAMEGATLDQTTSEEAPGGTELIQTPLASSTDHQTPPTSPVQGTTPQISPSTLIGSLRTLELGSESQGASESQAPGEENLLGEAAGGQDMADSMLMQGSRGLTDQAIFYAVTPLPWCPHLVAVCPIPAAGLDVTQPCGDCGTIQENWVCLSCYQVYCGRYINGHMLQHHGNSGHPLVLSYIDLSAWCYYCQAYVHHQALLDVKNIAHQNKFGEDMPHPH
Assay: HDAC6 enzyme activity inhibition (HDAC Fluorimetric Drug Discovery Kit)
Type: biochemical
Details: human recombinant HDAC6; IC50 calculated with GraphPad Prism
Procedure: An experiment was conducted to identify the selectivity of the compound represented by formula I of the present invention to HDAC6 through an experiment on HDAC1 and HDAC6 enzyme activity inhibition. […]
QUANTITY: pIC50
One number for each entry, as −log10 of the molar value.

In the examples that follow, each entry is paired with its recorded pIC50.
- CCN1CC(N2CCc3cc(-c4cn(Cc5ccc(-c6nnc(C(F)F)o6)cc5F)nn4)ccc3C2)C1 [Compound 4392]: 7.40
- CN(C)CC(=O)Nc1cccc(-c2cn(Cc3ccc(-c4nnc(C(F)F)o4)cc3F)nn2)c1 [Compound 4352]: 7.48
- CCN1CCN(c2cc(-c3cn(Cc4ccc(-c5nnc(C(F)F)o5)cc4)nn3)ccc2F)CC1 [Compound 4420]: 6.76
- CN(C)Cc1c(-c2ccccc2)nnn1Cc1ccc(-c2nnc(C(F)F)o2)cn1 [Compound 4490]: 7.06
- Cc1cncc(-c2cn(Cc3ccc(-c4nnc(C(F)F)o4)cn3)nn2)c1 [Compound 3884]: 7.42
- CN1C[C@@H]2C[C@H]1CN2c1cc(-c2cn(Cc3ccc(-c4nnc(C(F)F)o4)cc3)nn2)ccc1F [Compound 4429]: 7.17

Dear reader, for each entry below, please note its pIC50.
1. CCN1CCN(Cc2cccc(-c3cn(Cc4ccc(-c5nnc(C(F)F)o5)cc4)nn3)c2)CC1 [Compound 4415]
2. Fc1cc(-c2nnc(C(F)F)o2)ccc1Cn1cc(-c2ccc(CNC3CCC(F)(F)CC3)cc2)nn1 [Compound 4477]
3. Cn1ccc2ccc(-c3cn(Cc4ccc(-c5nnc(C(F)F)o5)cn4)nn3)cc21 [Compound 3914]
4. Fc1cc(-c2nnc(C(F)F)o2)ccc1Cn1cc(-c2cccc(CN3CCC3)c2)nn1 [Compound 4402]

1: 7.04; 2: 7.60; 3: 7.36; 4: 7.13

Go through the items and report each one's pIC50.
1. Fc1ccc(-c2cn(Cc3ccc(-c4nnc(C(F)F)o4)cc3F)nn2)cc1F [Compound 3662]
2. FC(F)c1nnc(-c2ccc(Cn3cc(-c4cccc(CN5CCOCC5)c4)nn3)nc2)o1 [Compound 3916]
3. CC(C)N1CCC(c2cccc(-c3cn(Cc4ccc(-c5nnc(C(F)F)o5)cc4F)nn3)c2)CC1 [Compound 4292]
4. CN1C[C@@H]2C[C@H]1CN2c1cccc(-c2cn(Cc3ccc(-c4nnc(C(F)F)o4)cc3)nn2)c1 [Compound 4320]
5. Fc1cc(-c2nnc(C(F)F)o2)ccc1Cn1cc(-c2cccc(N3C[C@@H]4C[C@H]3CN4C3CCC3)c2)nn1 [Compound 4319]

6.76
7.55
7.29
7.16
7.47

// batch mode: one pIC50 value per listed entry
1. O=C(c1cccc(-c2cn(Cc3ccc(-c4nnc(C(F)F)o4)cn3)nn2)c1)N1CCOCC1 [Compound 3885]
2. CN(C)C(C)(C)C(=O)Nc1cccc(-c2cn(Cc3ccc(-c4nnc(C(F)F)o4)cn3)nn2)c1 [Compound 4231]
3. CN1CCN(c2cc(-c3cn(Cc4ccc(-c5nnc(C(F)F)o5)cc4F)nn3)ccc2F)CC1 [Compound 4424]
4. Fc1cc(-c2nnc(C(F)F)o2)ccc1Cn1cc(-c2cccc(N3CCOCC3)c2)nn1 [Compound 4339]
5. Fc1ccc(-c2cn(Cc3ccc(-c4nnc(C(F)F)o4)cc3)nn2)cc1N1C[C@@H]2C[C@H]1CN2 [Compound 4398]

[7.27, 7.26, 7.05, 7.51, 7.30]
